Field: inhibition. Provide a value for each of the molecules that follow.
Experimental Target: Serine/threonine-protein kinase 4 (Homo sapiens);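 note: mean inhibition of MST1, part of the GSK PKIS dataset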
Particulars: at 1 µM
Answers are plain numbers, in %.

Respectfully, I request inhibition for each entry included below.
1. CCn1c(-c2nonc2N)nc2c(C#CC(C)(C)O)nc(OC[C@H](N)c3ccccc3)cc21
2. Cc1cccc(Nc2ncc(-c3ccccc3)o2)c1
3. CNC(=O)c1cccc(C#Cc2cncnc2Nc2ccc(OCc3cccc(F)c3)c(Cl)c2)c1
4. CS(=O)(=O)CCNCc1coc(-c2ccc3ncnc(Nc4ccc(OCc5ccccc5)cc4)c3c2)c1

Result:
[42.7, 4.08, 8.84, 3.41]

###

Experimental Target: SRSF protein kinase 3 (Homo sapiens);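 note: values are mean inhibition of MSSK1 (alias of SRPK3)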
Particulars: at 1 µM
Outcome Measure: inhibition (%)
Answers are plain numbers, in %.

COC(=O)Nc1nc2ccc(S(=O)(=O)c3ccc(NC(=O)Nc4cc(C(F)(F)F)ccc4F)cc3)cc2[nH]1	-1.81
CC(C)COC(=O)c1ccc2c(c1)/C(=C/Nc1ccc(S(N)(=O)=O)cc1)C(=O)N2	-1.97
[O-][S+]1CCN(Cc2ccc(-c3ccc4ncnc(Nc5ccc(OCc6cccc(F)c6)c(Cl)c5)c4c3)o2)CC1	-1
N#Cc1c(NC(=O)CN2CCOCC2)sc2c1CCCC2	2.65
COC(=O)c1sc(-n2cnc3cc(OC)c(OC)cc32)cc1OCc1ccccc1C(F)(F)F	-2.27
CCn1c(-c2nonc2N)nc2cnc(Oc3cccc(NC(=O)c4ccc(N(C)C)cc4)c3)cc21	-3.41
COc1ccc(-c2oc3ncnc(N)c3c2-c2ccc(NC(=O)Nc3cc(C(F)(F)F)ccc3F)cc2)cc1	48.7
Nc1nc(-c2ccc(F)cc2)c(-c2ccc3ncccc3n2)s1	2.22
CN1CCC(n2cnc(-c3ccc(F)cc3)c2-c2ccnc(N)n2)CC1	-0.82
Clc1ccc(-c2nn3ncccc3c2-c2ccnc(Nc3ccccc3)n2)cc1	-1.16

Hey, can you go through the list below and give me inhibition for every item?
1. Cc1ccc(O)cc1Nc1ccnc2cc(-c3ccccn3)ccc12
2. COc1cc(Nc2nccc(Nc3ccc4c(C)n[nH]c4c3)n2)cc(OC)c1OC
3. COc1ccc(-c2cc3c(N)ncnc3o2)cc1
4. O=S(=O)(CCNCc1ccc(-c2ccc3ncnc(Nc4ccc(OCc5cccc(F)c5)c(Cl)c4)c3c2)o1)c1ccccc1

Result:
0.54
0.79
-0.8
3.71
